Reported TGI is given for each of the following compounds.
Tested on: COLO 205 colon
assay-overview: NCI tumour cell line growth inhibition, 48 h
Reply with just the number (in µM).

# annotated cases, reported TGI shown
>>> endpoint_value("C#Cc1cccc(Nc2ncnc3ccc(-c4cnc(Cl)c(NS(C)(=O)=O)c4)cc23)c1")
2.12
>>> endpoint_value("COc1cccc2c1C(=O)c1c(O)c3c(c(O)c1C2=O)C[C@@](O)(/C(C)=N/NC(=O)c1ccccc1)C[C@@H]3OC1CC(N)C(O)C(C)O1 (stereo not given in full)")
3.2
>>> endpoint_value("O=C1c2cccc3cc([N+](=O)[O-])cc(c23)C(=O)N1CCN1CCCC1")
2.92

Please examine the following record next.
The compound identified as "CC(=O)O[C@H]1CC[C@@]2(C)C(=CC[C@@H]3[C@@H]2CC[C@]2(C)c4c(cc(C#N)c(=N)n4C(C)=O)C[C@@H]32)C1" registered its TGI at 35.7

----------
Tested on: SF-295 CNS
assay-overview: NCI tumour cell line growth inhibition, 48 h
quantity-kind: TGI

Worked examples, 10 compounds total:
>>> endpoint_value("O=C(/C=C\\Nc1ccccc1O)C(Cl)(Cl)Cl")
"35.2 µM"
>>> endpoint_value("COc1cc2c3c(n(Cc4ccccc4)c(=O)c2cc1OC)-c1ccccc1C3=O")
"> 100 µM"
>>> endpoint_value("COc1cc2ccc(/C(C)=N/OC(C)=O)cc2cc1OC")
"> 100 µM"
>>> endpoint_value("NCCCn1c2c(c3cc4c(cc3c1=O)OCO4)C(=O)c1ccccc1-2")
"1.48 µM"
>>> endpoint_value("CC(=O)Nc1ccc2oc(=O)c3ccccc3c2c1")
"> 100 µM"
>>> endpoint_value("c1ccc2c(c1)nnn2CNc1ccc(N2CCOCC2)cc1")
"> 100 µM"
>>> endpoint_value("NC12CC3CC4C1CC1CC2C(C3)C4(N)C1")
"> 100 µM"
>>> endpoint_value("COc1ccc(C(=O)C(Br)C(Br)C(=O)O)cc1 (stereo not given)")
"> 100 µM"
>>> endpoint_value("Clc1ccc2c(NCCNc3ccnc4cc(Cl)ccc34)ccnc2c1")
"26.2 µM"
>>> endpoint_value("O=C1C(Cl)=C(Nc2cccc(O)c2)C(=O)N1c1cccc(Cl)c1")
"> 100 µM"

Record "CCCCNC(=O)Oc1ccc2c(=O)c3sc4c(=O)c5ccccc5c(=O)c4c3c(=O)c2c1" , field TGI: 0.373 µM

----------
Tested on: SNB-75 CNS
assay-overview: NCI tumour cell line growth inhibition, 48 h
quantity-kind: TGI (µM)
Lab book: enter the figure in µM, no units written.

>>> endpoint_value("CC([C@H]1CCC2C3CCC4CC5(CC[C@]4(C)C3CC[C@@]21C)c1ccccc1C(=O)N5C)N(C)C (stereo not given in full)")
74.1

Now for another entry.
TGI recorded for this compound, "O=C1OC[C@@H]2Cc3c([nH]c4ccccc34)[C@@H](c3cc(O)c(O)c(O)c3)N12" , is 60.9

----------
System: SF-295 CNS
assay-overview: NCI tumour cell line growth inhibition, 48 h; in the data active means GI50 below about 0.43 µM; inactive means the rest
Give one outcome, nothing more. List: yes (active), no (inactive)

Field: example entries. Status: answers known.
>>> classification("COc1ccccc1N1CCN(C(=O)c2ccc(NS(=O)(=O)c3cccc4cccnc34)cc2)CC1")
"no"
>>> classification("O=C(O[C@H]1CN[C@H](C#Cc2cc3ncnc(Nc4ccc(OCc5cccc(F)c5)c(Cl)c4)c3s2)C1)N1CCOCC1")
"no"
>>> classification("O=C1CCC2=C3C4CCCCC4C(=O)C4CCCC(OC2C1)C34 (centres undefined)")
"no"
>>> classification("CCN(CC)Cc1cc(Nc2ccnc3cc(Cl)ccc23)cc(-c2ccc(Cl)cc2)c1O")
"no"
>>> classification("COc1cc([C@@H]2c3cc4c(cc3[C@H](OC(C)=O)[C@H]3COC(=O)[C@H]23)OCO4)cc(OC)c1OC")
"yes"

Any idea what this test logged for C/C=C1\C(=O)O[C@@H]2C1C[C@@H]1O[C@H]2[C@H](C)CCC/C(C)=C/CC[C@@]1(C)O (some centres undefined) ?
no

For "O=C(NC1CCN(Cc2ccccc2)CC1)c1cc(C(=O)NC2CCN(Cc3ccccc3)CC2)cc(C(=O)NC2CCN(Cc3ccccc3)CC2)c1" , which call appears in the assay record?
no

I'd appreciate the recorded outcome for "Cc1cccc2c1O/C(=C\c1ncc([N+](=O)[O-])n1C)C2=O" from this test.
no

What call does the record list for CCC1CCCCN1C(=S)N/N=C(\C)c1ccccn1 (centres undefined) ?
yes

----------
Test system: MOLT-4 leukemia
assay-overview: NCI tumour cell line growth inhibition, 48 h
quantity-kind: TGI (µM)
Field: numeric (µM). Do not append units.

>>> endpoint_value("CCOC(=O)c1c(C)[nH]c(/C=C2\\N=C(c3ccc[nH]3)C=C2OC)c1C")
3.09
>>> endpoint_value("O=S1c2ccccc2N=C(c2ccc(Cl)cc2)CC1c1cccs1 (configuration not stated)")
98.7

We next turn to a different molecule, shown below.
Cc1ccc([N+](=O)[O-])cc1S(=O)(=O)Nc1ccc(C2=NNC(c3cccs3)C2)cc1 (configuration not stated) on MOLT-4 leukemia gives TGI = 92.9

----------
Test system: 786-0 renal
assay-overview: NCI tumour cell line growth inhibition, 48 h
quantity-kind: TGI (µM)
Please reply with the bare figure in µM and do not write the unit itself.

Some solved cases for reference:
>>> endpoint_value("C/C(=N\\O)c1cccc(Nc2nc3ccccc3c3occc23)c1")
26.7
>>> endpoint_value("O=C1/C=C/[C@@H](O)[C@@H]2C[C@@H](O)C[C@H]2/C=C/CCC[C@H](CO)O1")
4.87
>>> endpoint_value("C/C=C1\\C(=O)O[C@@H]2C1C[C@@H]1O[C@H]2[C@H](C)CCC/C(C)=C/CC[C@@]1(C)O (some centres not stated)")
14.2
>>> endpoint_value("CN(C1=NS(=O)(=O)N=C(N(C)c2ccccc2)O1)c1ccccc1")
72.7

// recorded TGI for COc1cccc2c1C(=O)c1c(O)c3c(c(O)c1C2=O)C[C@@](O)(/C(C)=N/NC(=O)c1ccccc1)C[C@@H]3OC1CC(N)C(O)C(C)O1 (some centres not stated) : 0.744

Value of measured TGI for the entry "NC(=O)c1cc(Cl)ccc1NC(=O)c1ccccc1-c1ccccc1" : 17.9

Sample "ClC1(c2ccccc2)c2ccc(Br)cc2-c2cc(Br)ccc21" ; TGI observed: 30.2

----------
System: MALME-3M melanoma
assay-overview: NCI tumour cell line growth inhibition, 48 h; in the data active = GI50 below about 0.43 µM; inactive = the rest
Log the outcome using a class from active, inactive

Past entries and their recorded results:
>>> classification("CCCCNC(=O)Oc1ccc2c(=O)c3sc4c(=O)c5ccccc5c(=O)c4c3c(=O)c2c1")
"active"
>>> classification("O=C1c2cccc3cc([N+](=O)[O-])cc(c23)C(=O)N1CCN1CCCC1")
"active"
>>> classification("CC1OC(O[C@H]2/C=C/C=C/C=C/C=C/C=C/C=C/C=C/[C@H](C)[C@@H](O)[C@@H](C)[C@H](C)OC(=O)C[C@H](O)C[C@H](O)CC[C@@H](O)[C@H](O)C[C@H](O)C[C@]3(O)C[C@H](O)[C@@H](C(=O)O)[C@H](C2)O3)C(O)C(N)C1O (stereo partly drawn)")
"inactive"
>>> classification("COc1ccc(Cl)cc1NC(=O)c1c(NC(=O)C(F)(F)C(F)(F)F)sc2c1CCCCC2")
"inactive"

Please share the test call associated with "NC(=O)c1cc(Cl)ccc1NC(=O)c1ccccc1-c1ccccc1" .
inactive

Write down the call the test reported for this compound. Item: O=C1CCC2=C3C4CCCCC4C(=O)C4CCCC(OC2C1)C34 (stereo not drawn)
active

Per the assay record, what outcome was assigned to "O=c1ccccc(-c2ccc(-c3ccco3)cc2)c1O" ?
inactive

Which outcome was entered for the compound "COc1ccccc1N1CCN(C(=O)c2ccc(NS(=O)(=O)c3cccc4cccnc34)cc2)CC1" in this test?
inactive

----------
Tested on: NCI/ADR-RES ovarian
assay-overview: NCI tumour cell line growth inhibition, 48 h
quantity-kind: GI50

Sample "COc1cccc(-c2nc(-c3ccc(NC(=O)c4ccccc4)cc3)[nH]c2-c2ccnc(Br)c2)c1" , system: NCI/ADR-RES ovarian. Its GI50 is 3.55 µM

Assay NCI/ADR-RES ovarian, sample "COc1c(B(O)O)cccc1-c1nc2c(F)cc3[nH]ncc3c2c2c1CCCC2" , GI50 read: 2.44 µM

Observed GI50 on NCI/ADR-RES ovarian, entry "N=C1C(c2nc3ccccc3s2)=C(O)CN1c1ccc(Cl)cc1Cl" , equals 13.5 µM

Short answer on NCI/ADR-RES ovarian for "C=C1SC(=Nc2ccccc2Cl)N(C(=O)c2sc3ccccc3c2Cl)C1(C)C" , GI50: 3.71 µM

Form field, GI50 with NCI/ADR-RES ovarian, item "O=S(=O)(NCCCNc1cc(-c2cn(-c3ccccc3)nc2-c2cccc(O)c2)ccn1)c1cccc2ccccc12" : 3.72 µM

// compound "COc1cc(C)[nH]c(=O)c1CN1CCc2c(Cl)cc([C@H](OC)C3COC3)c(Cl)c2C1=O" , assay NCI/ADR-RES ovarian, GI50 value: > 100 µM

Measured GI50 (NCI/ADR-RES ovarian), entry "Oc1cccc(Cn2c(-c3cccc(O)c3O)nc3ccccc32)c1O" : 2.34 µM

Considering "C[C@@H](Oc1cc(NS(=O)(=O)N2CCC2)nc(SCc2cccc(F)c2F)n1)[C@@H](O)CO" , its GI50 with NCI/ADR-RES ovarian was recorded as > 100 µM

Field GI50 (system: NCI/ADR-RES ovarian) for entry "CCOC(=O)c1c(C)[nH]c(/C=C2\N=C(c3ccc[nH]3)C=C2OC)c1C" = 0.0457 µM

Simply: COC(=O)c1cc2c3c(cc(O)c2[nH]1)N(C(=O)C1Cc2cc(OC)c(OC)c(OC)c2N1)CC3CCl (stereo unspecified) , NCI/ADR-RES ovarian, GI50 = < 0.01 µM
